Field: pIC50. Provide a value for each of the molecules that follow.
tested on: HeLa (adenocarcinoma of the cervix uterus) cells; test: Cytotoxicity, MTT assay, HeLa cells; format: cell-based; conditions: Homo sapiens, read-out: IC50, 50% inhibition of the cell population growth, 72 h, mean ± SD
The meaning of pIC50 here: minus log10 of the concentration in molar units.

So for COc1ccc(/N=C/c2c(-c3ccc(F)cc3)c3n(c2-c2ccccc2)CCc2cc(OC)c(OC)cc2-3)cc1 [Compound 12] , the logged pIC50 turned out to be 3.35

So for CCOc1ccc(-c2c(/C=N/c3ccc(/N=C/c4cn5c(c4-c4ccc(OCC)c(OCC)c4)-c4cc(OCC)c(OCC)cc4CC5)cc3)cn3c2-c2cc(OCC)c(OCC)cc2CC3)cc1OCC [Compound 13a] , the logged pIC50 turned out to be 3.69

So for COc1cc2c(cc1OC)-c1c(-c3ccc(Cl)cc3)c(C=O)cn1CC2 [Compound 3] , the logged pIC50 turned out to be 4.48

So for COc1cc2c(cc1OC)-c1c(-c3ccc(Cl)cc3)c(C=O)c(-c3ccccc3)n1CC2 [Compound 4] , the logged pIC50 turned out to be 3.96

So for COc1cc2c(cc1OC)-c1c(-c3ccc(Cl)cc3)c(/C=N/c3ccc(/N=C/c4cn5c(c4-c4ccc(Cl)cc4)-c4cc(OC)c(OC)cc4CC5)cc3)cn1CC2 [Compound 14] , the logged pIC50 turned out to be 3.51

So for COc1cc2c(cc1OC)-c1c(-c3ccc(Cl)cc3)c(/C=N/c3ccc(/N=C/c4c(-c5ccc(Cl)cc5)c5n(c4-c4ccccc4)CCc4cc(OC)c(OC)cc4-5)cc3)c(-c3ccccc3)n1CC2 [Compound 15a] , the logged pIC50 turned out to be 4.03

So for COc1ccc(/N=C/c2cn3c(c2-c2ccc(Cl)cc2)-c2cc(OC)c(OC)cc2CC3)cc1 [Compound 9] , the logged pIC50 turned out to be 4.45

So for CCOc1ccc(-c2c(/C=N/N=C/c3cn4c(c3-c3ccc(OCC)c(OCC)c3)-c3cc(OCC)c(OCC)cc3CC4)cn3c2-c2cc(OCC)c(OCC)cc2CC3)cc1OCC [Compound 18] , the logged pIC50 turned out to be 3.52

So for CCOc1ccc(-c2c(CN(C)CCNC)cn3c2-c2cc(OCC)c(OCC)cc2CC3)cc1OCC.O=C(O)/C=C/C(=O)O [Compound 17a] , the logged pIC50 turned out to be 4.53

So for CCOc1ccc(-c2c(/C=N/CCCN(C)C)cn3c2-c2cc(OCC)c(OCC)cc2CC3)cc1OCC.Cl.Cl [Compound 16a] , the logged pIC50 turned out to be 4.20

----------
target: human MAO B (Homo sapiens); construct: host or cells: baculovirus-infected insect cells (microsomes); assay: biochemical; details: at 10 μM, mean ± SD (n = 3); read-out: % inhibition hMAO B
Sequence (P27338 whole entry): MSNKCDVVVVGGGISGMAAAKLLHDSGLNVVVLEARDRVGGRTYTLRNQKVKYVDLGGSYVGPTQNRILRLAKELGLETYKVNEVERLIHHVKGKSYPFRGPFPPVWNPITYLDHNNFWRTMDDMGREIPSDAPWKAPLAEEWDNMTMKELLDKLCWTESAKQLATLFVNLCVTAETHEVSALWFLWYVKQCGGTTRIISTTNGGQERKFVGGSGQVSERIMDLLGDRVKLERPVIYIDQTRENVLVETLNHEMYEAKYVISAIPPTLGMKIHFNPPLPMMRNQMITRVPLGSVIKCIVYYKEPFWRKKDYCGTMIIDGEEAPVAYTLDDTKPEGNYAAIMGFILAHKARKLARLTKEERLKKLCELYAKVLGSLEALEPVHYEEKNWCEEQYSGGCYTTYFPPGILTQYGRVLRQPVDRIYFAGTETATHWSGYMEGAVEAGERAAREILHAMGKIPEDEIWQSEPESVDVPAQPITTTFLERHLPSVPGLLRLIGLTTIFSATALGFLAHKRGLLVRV
Measured attribute: inhibition at 10 µM (%)
Write it as a number; the unit % goes unstated.

Kindly note: human MAO B (Homo sapiens), COc1cc2c(cc1OC)-c1c(-c3ccc(Cl)cc3)c(/C=N/c3ccc(/N=C/c4cn5c(c4-c4ccc(Cl)cc4)-c4cc(OC)c(OC)cc4CC5)cc3)cn1CC2 , inhibition at 10 µM value reported: 19

Kindly note: human MAO B (Homo sapiens), CCOc1ccc(-c2c(/C=N/c3ccc(/N=C/c4cn5c(c4-c4ccc(OCC)c(OCC)c4)-c4cc(OCC)c(OCC)cc4CC5)cc3)cn3c2-c2cc(OCC)c(OCC)cc2CC3)cc1OCC [Compound 13a] , inhibition at 10 µM value reported: 31

Kindly note: human MAO B (Homo sapiens), COc1ccc(/N=C/c2cn3c(c2-c2ccc(Cl)cc2)-c2cc(OC)c(OC)cc2CC3)cc1 , inhibition at 10 µM value reported: 29

Kindly note: human MAO B (Homo sapiens), COc1ccc(/N=C/c2cn3c(c2-c2ccc(F)cc2)-c2cc(OC)c(OC)cc2CC3)cc1 , inhibition at 10 µM value reported: 22

----------
target: β-amyloid (Aβ)1–40 self-aggregation (Homo sapiens, UniProt P05067); construct: self-aggregation of Aβ peptides 1–40 (Aβ40); assay: Inhibition of self-induced Aβ40 aggregation, thioflavin T fluorescence; conditions: Aβ40 30 μM, 2% HFIP, PBS pH 7.4, 2 h, ThT; mean ± SD (n = 3)
Sequence (P05067 672-711 limits assumed): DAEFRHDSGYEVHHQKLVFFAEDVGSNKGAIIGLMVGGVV
Measured attribute: pIC50
The meaning of pIC50 here: minus log10 of the concentration in molar units.

Kindly note: β-amyloid (Aβ)1–40 self-aggregation (Homo sapiens, UniProt P05067), COc1cc2c(cc1OC)-c1c(-c3ccc(Cl)cc3)c(/C=N/c3ccc(/N=C/c4cn5c(c4-c4ccc(Cl)cc4)-c4cc(OC)c(OC)cc4CC5)cc3)cn1CC2 [Compound 14] , pIC50 value reported: 4.89

Kindly note: β-amyloid (Aβ)1–40 self-aggregation (Homo sapiens, UniProt P05067), COc1ccc(/N=C/c2cn3c(c2-c2ccc(Cl)cc2)-c2cc(OC)c(OC)cc2CC3)cc1 [Compound 9] , pIC50 value reported: 4.34

Kindly note: β-amyloid (Aβ)1–40 self-aggregation (Homo sapiens, UniProt P05067), CCOc1ccc(-c2c(/C=N/c3ccc(/N=C/c4cn5c(c4-c4ccc(OCC)c(OCC)c4)-c4cc(OCC)c(OCC)cc4CC5)cc3)cn3c2-c2cc(OCC)c(OCC)cc2CC3)cc1OCC [Compound 13a] , pIC50 value reported: 4.38

----------
biological target: β-amyloid (Aβ)1–40 self-aggregation (Homo sapiens, UniProt P05067); construct: self-aggregation of Aβ peptides 1–40 (Aβ40); test: Inhibition of self-induced Aβ40 aggregation, thioflavin T fluorescence; assay type: biochemical; conditions: at 100 μM, Aβ40 30 μM, 2% HFIP, ThT; mean ± SD (n = 3)
Measured attribute: inhibition at 100 µM (%)
Write it as a number; the unit % goes unstated.

So for COc1ccc(/N=C/c2c(-c3ccc(Cl)cc3)c3n(c2-c2ccccc2)CCc2cc(OC)c(OC)cc2-3)cc1 , the logged inhibition at 100 µM turned out to be 42

So for CCOc1ccc(-c2c(/C=N/CC/N=C/c3cn4c(c3-c3ccc(OCC)c(OCC)c3)-c3cc(OCC)c(OCC)cc3CC4)cn3c2-c2cc(OCC)c(OCC)cc2CC3)cc1OCC , the logged inhibition at 100 µM turned out to be 48

So for CCOc1ccc(-c2c(CN(C)CCNC)cn3c2-c2cc(OCC)c(OCC)cc2CC3)cc1OCC.O=C(O)/C=C/C(=O)O [Compound 17a] , the logged inhibition at 100 µM turned out to be 31

So for CCOc1ccc(-c2c(/C=N/CCCN(C)C)cn3c2-c2cc(OCC)c(OCC)cc2CC3)cc1OCC.Cl.Cl [Compound 16a] , the logged inhibition at 100 µM turned out to be 48

So for COc1cc2c(cc1OC)-c1c(-c3ccc(Cl)cc3)c(C=O)c(-c3ccccc3)n1CC2 , the logged inhibition at 100 µM turned out to be 35

----------
experiment: in vitro; conditions: human, SH-SY5Y neuroblastoma cells
Measured attribute: IC50 at 72 h
Reply with the number and its unit after it.

So for CCOc1ccc(-c2c(CN(C)CCNC)cn3c2-c2cc(OCC)c(OCC)cc2CC3)cc1OCC.O=C(O)/C=C/C(=O)O [Compound 17a] , the logged IC50 at 72 h turned out to be 17.9 µM

So for COc1ccc(/N=C/c2cn3c(c2-c2ccc(F)cc2)-c2cc(OC)c(OC)cc2CC3)cc1 [Compound 11] , the logged IC50 at 72 h turned out to be 56.1 µM

So for COc1ccc(/N=C/c2cn3c(c2-c2ccc(Cl)cc2)-c2cc(OC)c(OC)cc2CC3)cc1 [Compound 9] , the logged IC50 at 72 h turned out to be 22.1 µM

----------
biological target: human butyrylcholinesterase (BChE) (Homo sapiens, UniProt P06276); construct: BChE from human serum (50 U/mg); from tissue; host or cells: human serum; test: BChE inhibition, Ellman's method; type: biochemical; conditions: at 10 μM, mean ± SD (n = 3); n.i. = no inhibition
Sequence (P06276 29-602): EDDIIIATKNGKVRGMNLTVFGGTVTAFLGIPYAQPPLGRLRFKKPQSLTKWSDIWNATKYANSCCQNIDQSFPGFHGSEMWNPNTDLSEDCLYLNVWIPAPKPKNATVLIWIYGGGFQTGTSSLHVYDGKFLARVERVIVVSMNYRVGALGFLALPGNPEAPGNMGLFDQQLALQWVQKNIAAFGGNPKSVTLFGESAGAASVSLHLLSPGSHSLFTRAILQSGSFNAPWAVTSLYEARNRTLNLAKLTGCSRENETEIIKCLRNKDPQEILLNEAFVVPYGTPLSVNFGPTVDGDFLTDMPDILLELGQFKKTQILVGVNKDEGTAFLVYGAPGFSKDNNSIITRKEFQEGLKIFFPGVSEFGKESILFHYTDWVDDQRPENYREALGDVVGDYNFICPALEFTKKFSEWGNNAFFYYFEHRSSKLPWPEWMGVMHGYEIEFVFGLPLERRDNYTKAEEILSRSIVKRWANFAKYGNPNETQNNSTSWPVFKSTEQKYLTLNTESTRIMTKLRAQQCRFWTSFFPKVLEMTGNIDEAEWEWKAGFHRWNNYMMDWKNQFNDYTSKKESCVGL
Measured attribute: % inhibition hBChE

So for CCOc1ccc(-c2c(/C=N/CC/N=C/c3cn4c(c3-c3ccc(OCC)c(OCC)c3)-c3cc(OCC)c(OCC)cc3CC4)cn3c2-c2cc(OCC)c(OCC)cc2CC3)cc1OCC [Compound 19] , the logged % inhibition hBChE turned out to be n.i.

So for COc1cc2c(cc1OC)-c1c(-c3ccc(F)cc3)c(C=O)cn1CC2 [Compound 5] , the logged % inhibition hBChE turned out to be n.i.

So for COc1cc2c(cc1OC)-c1c(-c3ccc(Cl)cc3)c(/C=N/c3ccc(/N=C/c4c(-c5ccc(Cl)cc5)c5n(c4-c4ccccc4)CCc4cc(OC)c(OC)cc4-5)cc3)c(-c3ccccc3)n1CC2 [Compound 15a] , the logged % inhibition hBChE turned out to be n.i.

So for CCOc1ccc(-c2c(/C=N/CCCN(C)C)cn3c2-c2cc(OCC)c(OCC)cc2CC3)cc1OCC.Cl.Cl [Compound 16a] , the logged % inhibition hBChE turned out to be n.i.

So for CCOc1ccc(-c2c(CN(C)CCNC)cn3c2-c2cc(OCC)c(OCC)cc2CC3)cc1OCC.O=C(O)/C=C/C(=O)O [Compound 17a] , the logged % inhibition hBChE turned out to be n.i.

So for COc1cc2c(cc1OC)-c1c(-c3ccc(Cl)cc3)c(C=O)cn1CC2 [Compound 3] , the logged % inhibition hBChE turned out to be n.i.

Others:
So for COc1cc2c(cc1OC)-c1c(-c3ccc(Cl)cc3)c(C=O)c(-c3ccccc3)n1CC2 [Compound 4] , the logged % inhibition hBChE turned out to be n.i.

Taken from paper PMC7827648.
